Data provenance is patent US20230192661A1.

assay: Transcellular transport test using Caco2 cell; type: in vitro ADME; conditions: human, Caco-2; Caco2 monolayer, A-to-B, 10 μM compound, pH 7.4, 90 minutes
# Papp A→B at 90 min, 10 μM values compiled below

Reference set, count: 8
Lab note: measured Papp A→B at 90 min, 10 μM of O=C(O)C[C@H](NC(=O)CNC(=O)c1cc(NC2=NCC(F)CN2)c2cn[nH]c2c1)c1ccc(F)c(OC(F)(F)F)c1 (stereo partly shown) was > 1 ×10⁻⁶ cm/s

Value of measured Papp A→B at 90 min, 10 μM for the entry O=C(O)C[C@H](NC(=O)CNC(=O)c1cc(NC2=NCC(F)CN2)c2c(Cl)n[nH]c2c1)c1cc(Cl)cc(C(F)(F)F)c1 (stereo partly shown) : 0.5 to 1 ×10⁻⁶ cm/s

Briefly, Papp A→B at 90 min, 10 μM measured for O=C(O)C[C@H](NC(=O)CNC(=O)c1cc(NC2=NCC(F)CN2)c2cn[nH]c2c1)c1ccc(F)c(OC(F)F)c1 (stereo partly shown) : > 1 ×10⁻⁶ cm/s

response.value for COc1cc([C@H](CC(=O)O)NC(=O)CNC(=O)c2cc(NC3=NCC(F)CN3)c3cn[nH]c3c2)cc(C(F)(F)F)c1 (stereo partly shown) (field: Papp A→B at 90 min, 10 μM) = 0.5 to 1 ×10⁻⁶ cm/s

Papp A→B at 90 min, 10 μM reading for O=C(O)C[C@H](NC(=O)CNC(=O)c1cc(NC2=NCC(F)CN2)c2c(F)n[nH]c2c1)c1cc(Cl)cc(C(F)(F)F)c1 (stereo partly shown) : > 1 ×10⁻⁶ cm/s

molecule O=C(O)C[C@H](NC(=O)CNC(=O)c1cc(NC2=NCC(F)CN2)c2cn[nH]c2c1)c1cccc(OC(F)F)c1 (stereo partly shown) , Papp A→B at 90 min, 10 μM observed: > 1 ×10⁻⁶ cm/s

Looking up O=C(O)C[C@H](NC(=O)CNC(=O)c1cc(NC2=NCC(F)CN2)cc2[nH]ncc12)c1cccc(C(F)(F)F)c1 (stereo partly shown) , I found its Papp A→B at 90 min, 10 μM recorded as 0.1 to 0.5 ×10⁻⁶ cm/s

Record O=C(O)C[C@H](NC(=O)CNC(=O)c1cc(NC2=NCC(F)CN2)c2cn[nH]c2c1)c1cc(C(F)(F)F)ccc1F (stereo partly shown) , field Papp A→B at 90 min, 10 μM: > 1 ×10⁻⁶ cm/s

Now let's try a different one.
Recorded result, O=C(O)C[C@H](NC(=O)CNC(=O)c1cc(NC2=NCC(F)CN2)cc2[nH]ncc12)c1ccc(F)c(C(F)(F)F)c1 (stereo partly shown) , Papp A→B at 90 min, 10 μM: 0.1 to 0.5 ×10⁻⁶ cm/s

----------
target: αvβ1 (UniProt G3HZ55+P06756); assay: αvβ1 cell adhesion inhibition test (αv-transfected CHO cells on human fibronectin); conditions: human fibronectin coating, 1 mM MnCl2, 1 hour, read-out: IC50 (rate of inhibition of cell adhesion, αvβ1)
Sequence (P06756 31-889 limits assumed): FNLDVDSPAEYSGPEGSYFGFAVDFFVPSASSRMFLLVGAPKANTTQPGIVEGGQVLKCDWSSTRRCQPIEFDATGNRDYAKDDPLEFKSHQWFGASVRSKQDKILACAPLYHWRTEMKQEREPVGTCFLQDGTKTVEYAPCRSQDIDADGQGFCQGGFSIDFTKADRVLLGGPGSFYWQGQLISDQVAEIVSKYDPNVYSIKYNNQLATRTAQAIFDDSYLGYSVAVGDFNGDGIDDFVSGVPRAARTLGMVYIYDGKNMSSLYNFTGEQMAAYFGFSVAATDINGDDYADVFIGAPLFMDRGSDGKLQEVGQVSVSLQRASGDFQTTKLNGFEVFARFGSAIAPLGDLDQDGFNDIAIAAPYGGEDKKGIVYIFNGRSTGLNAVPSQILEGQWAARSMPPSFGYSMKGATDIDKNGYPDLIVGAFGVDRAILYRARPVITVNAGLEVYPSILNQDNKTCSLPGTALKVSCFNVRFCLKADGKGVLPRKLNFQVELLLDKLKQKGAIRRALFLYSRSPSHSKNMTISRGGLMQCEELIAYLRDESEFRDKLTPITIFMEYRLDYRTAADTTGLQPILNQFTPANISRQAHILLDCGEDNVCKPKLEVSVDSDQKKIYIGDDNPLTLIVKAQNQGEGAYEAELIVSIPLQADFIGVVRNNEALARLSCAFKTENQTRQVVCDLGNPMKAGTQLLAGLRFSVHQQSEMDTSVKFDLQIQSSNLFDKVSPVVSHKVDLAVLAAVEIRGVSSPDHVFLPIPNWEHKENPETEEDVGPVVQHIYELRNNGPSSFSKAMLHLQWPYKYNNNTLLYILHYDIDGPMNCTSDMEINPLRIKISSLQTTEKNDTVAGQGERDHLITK
Sequence (P06756 891-1048 limits assumed): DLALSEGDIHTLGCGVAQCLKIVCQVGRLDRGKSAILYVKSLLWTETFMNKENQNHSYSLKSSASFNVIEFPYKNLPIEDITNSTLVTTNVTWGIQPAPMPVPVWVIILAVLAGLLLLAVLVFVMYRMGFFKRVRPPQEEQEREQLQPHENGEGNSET
Sequence (G3HZ55 21-798): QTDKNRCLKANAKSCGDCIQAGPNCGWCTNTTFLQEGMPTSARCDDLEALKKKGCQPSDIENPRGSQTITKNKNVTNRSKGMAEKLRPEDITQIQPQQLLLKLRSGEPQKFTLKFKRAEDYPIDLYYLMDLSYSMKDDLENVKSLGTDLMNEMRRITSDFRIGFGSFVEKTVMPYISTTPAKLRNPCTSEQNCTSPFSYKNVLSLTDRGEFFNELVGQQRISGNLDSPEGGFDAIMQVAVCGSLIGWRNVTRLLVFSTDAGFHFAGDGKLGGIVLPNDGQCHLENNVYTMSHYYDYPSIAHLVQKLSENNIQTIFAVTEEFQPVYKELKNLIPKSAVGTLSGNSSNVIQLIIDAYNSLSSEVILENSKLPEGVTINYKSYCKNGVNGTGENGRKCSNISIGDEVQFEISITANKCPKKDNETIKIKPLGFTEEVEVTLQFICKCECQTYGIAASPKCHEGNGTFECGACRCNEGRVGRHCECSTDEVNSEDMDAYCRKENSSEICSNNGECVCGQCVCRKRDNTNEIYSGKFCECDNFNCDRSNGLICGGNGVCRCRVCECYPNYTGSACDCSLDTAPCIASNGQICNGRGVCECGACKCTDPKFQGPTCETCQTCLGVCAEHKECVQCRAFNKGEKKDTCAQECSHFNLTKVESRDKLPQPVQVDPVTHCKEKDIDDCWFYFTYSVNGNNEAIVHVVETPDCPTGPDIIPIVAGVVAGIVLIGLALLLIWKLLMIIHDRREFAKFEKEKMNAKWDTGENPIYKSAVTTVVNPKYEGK
pIC50: −log10 of the molar value.
experimental readout: pIC50

Use the examples below as a reference point.
Item: COc1cc([C@H](CC(=O)O)NC(=O)CNC(=O)c2cc(NC3=NCC(F)CN3)c3cn[nH]c3c2)cc(C(F)(F)F)c1 (stereo partly drawn) [Example 5-(b)] | pIC50: > 8.52

O=C(O)C[C@H](NC(=O)CNC(=O)c1cc(NC2=NCC(F)CN2)c2cn[nH]c2c1)c1cc(Br)cc(OC(F)(F)F)c1 (stereo partly drawn) [Example 32-(b)] has a reported pIC50 of > 8.52

The compound listed as Cc1cc(C)n(-c2cccc([C@H](CC(=O)O)NC(=O)CNC(=O)c3cc(NC4=NCC(F)CN4)c4cn[nH]c4c3)c2)n1 (stereo partly drawn) [Example 44-(b)] has a reported pIC50 of > 8.52

Continuing:
For record O=C(O)C[C@H](NC(=O)CNC(=O)c1cc(NC2=NCC(F)CN2)c2cn[nH]c2c1)c1cc(Cl)cc(Br)c1 (stereo partly drawn) [Example 18-(b)] the listed pIC50 is > 8.52

Sample O=C(O)C[C@H](NC(=O)CNC(=O)c1cc(NC2=NCCCN2)c2cn[nH]c2c1)c1cc(Cl)cc(C(F)(F)F)c1 [Example 51-(b)] ; pIC50 observed: 7.00 to 7.52

Record O=C(O)C[C@H](NC(=O)CNC(=O)c1cc(NC2=NCC(F)CN2)c2cn[nH]c2c1)c1cc(OC(F)F)cc(C(F)(F)F)c1 (stereo partly drawn) [Example 24-(b)] , field pIC50: > 8.52
